target: human GLP-1 receptor (human, UniProt P43220 24-463); assay: cell-based or functional assay
Bridge positions count the residues as written; N and C are the ends. Square brackets hold non-standard residues; d marks the D form. Ends that are not written are not given here. * marks the point of attachment. Acetyl(2-(4-imidazolyl)) = O=C(Cc1c[nH]cn1)*; Aib = CC(C)(N)C(=O)O
reported.property: In vitro activity compared with native peptide (%) vs GLP-1 (cAMP EC50)
Respond with a number, then the unit of measure.

// lookup In vitro activity compared with native peptide (%) vs GLP-1 (cAMP EC50) for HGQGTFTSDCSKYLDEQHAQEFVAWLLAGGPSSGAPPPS [triple agonist of SEQ ID NO: 46]
1.4%

// lookup In vitro activity compared with native peptide (%) vs GLP-1 (cAMP EC50) for [Acetyl(2-(4-imidazolyl))]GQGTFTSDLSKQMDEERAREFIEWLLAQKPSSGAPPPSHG [triple agonist of SEQ ID NO: 17]
0.2%

// lookup In vitro activity compared with native peptide (%) vs GLP-1 (cAMP EC50) for Y[Aib]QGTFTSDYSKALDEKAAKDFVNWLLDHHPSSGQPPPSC (bridge 16-20) [triple agonist of SEQ ID NO: 99]
20.9%

// lookup In vitro activity compared with native peptide (%) vs GLP-1 (cAMP EC50) for [Acetyl(2-(4-imidazolyl))][Aib]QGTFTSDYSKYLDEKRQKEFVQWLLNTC (bridge 16-20) [triple agonist of SEQ ID NO: 81]
7.8%

// lookup In vitro activity compared with native peptide (%) vs GLP-1 (cAMP EC50) for H[Aib]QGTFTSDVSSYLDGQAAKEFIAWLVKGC [triple agonist of SEQ ID NO: 1]
3.2%

// lookup In vitro activity compared with native peptide (%) vs GLP-1 (cAMP EC50) for Y[Aib]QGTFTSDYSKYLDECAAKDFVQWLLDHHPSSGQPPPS (bridge (positions not given here); ends not checked; also: ring formation between two underlined residues) [triple agonist of SEQ ID NO: 67]
28.5%
